# Tested Target: UniProt P46098
# Sequence (P46098 24-478): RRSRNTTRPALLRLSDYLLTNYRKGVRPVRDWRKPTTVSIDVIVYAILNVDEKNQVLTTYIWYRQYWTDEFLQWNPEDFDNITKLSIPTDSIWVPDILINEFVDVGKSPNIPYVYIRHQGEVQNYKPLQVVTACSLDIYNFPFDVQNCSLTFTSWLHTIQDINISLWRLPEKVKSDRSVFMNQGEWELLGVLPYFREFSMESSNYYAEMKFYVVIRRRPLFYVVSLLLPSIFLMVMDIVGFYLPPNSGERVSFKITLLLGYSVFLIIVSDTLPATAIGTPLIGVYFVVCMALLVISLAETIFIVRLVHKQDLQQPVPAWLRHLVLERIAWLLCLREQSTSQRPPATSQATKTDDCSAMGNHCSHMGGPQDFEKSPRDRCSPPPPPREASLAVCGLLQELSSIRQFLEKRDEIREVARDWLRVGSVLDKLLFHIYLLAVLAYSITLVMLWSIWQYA
# Experiment Description: Human 5-HT3A receptor functional assay
# Cond: read-out: IC50 (antagonism in functional assay)
Readout: IC50

Prompt line: Using known records, supply IC50 for Cc1ccc(Sc2ccccc2N2CCNCC2)c(C)c1
Response line: ~20 nM

###

Quick list: solubility per entry.
# Experiment Description: physchem
# Cond: water

Record excerpt, results attached:
Cc1ccc(Sc2ccccc2N2CCNCC2)c(C)c1.O=S(=O)(O)O [sulphate] ... ~100 µg/mL
Cc1ccc(Sc2ccccc2N2CCNCC2)c(C)c1.O=[N+]([O-])O [nitrate] ... ~800 µg/mL
Cc1ccc(Sc2ccccc2N2CCNCC2)c(C)c1.O=C(O)C(O)C(O)C(=O)O [L-(+)-tartrate] ... ~400 µg/mL
Cc1ccc(Sc2ccccc2N2CCNCC2)c(C)c1.O=C(O)/C=C\C(=O)O [maleate] ... ~1000 µg/mL
Cc1ccc(Sc2ccccc2N2CCNCC2)c(C)c1.Cl [hydrochloride] ... 3000 µg/mL

Prompt line: Using known records, supply solubility for Cc1ccc(Sc2ccccc2N2CCNCC2)c(C)c1.O=P(O)(O)O [phosphate]
Response line: ~1000 µg/mL

Prompt line: Using known records, supply solubility for Br.Cc1ccc(Sc2ccccc2N2CCNCC2)c(C)c1 [alpha form of the hydrobromide]
Response line: 2000 µg/mL

Prompt line: Using known records, supply solubility for CS(=O)(=O)O.Cc1ccc(Sc2ccccc2N2CCNCC2)c(C)c1 [mesylate]
Response line: > 45000 µg/mL

Just for reference, patent US8664225B2 is where these values come from.
